B1: HDV Ribozyme (parent)
chain: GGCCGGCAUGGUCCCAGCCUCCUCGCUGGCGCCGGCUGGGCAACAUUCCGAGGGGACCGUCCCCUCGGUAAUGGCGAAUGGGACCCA

- Variants of: B1
- method summary: self-cleavage, relative activity (ratio to wild type); higher = more cleavage; co-transcriptional
Think of 0.4 as a floor: if self-cleavage stands on it or above, it is 1 (yes); beneath it, 0 (no).

{"columns": ["mutant designation", "answer label"],
 "data": [
  ["G55U C66U", "1 (yes)"],
  ["C14G C21A", "0 (no)"],
  ["A16G C36G", "0 (no)"],
  ["U46G U79A", "0 (no)"],
  ["C48U A70G", "1 (yes)"],
  ["G28C G50C", "0 (no)"],
  ["G40U G81A", "0 (no)"],
  ["A43G A71G", "1 (yes)"],
  ["C41A G68C", "1 (yes)"],
  ["C61G A87U", "1 (yes)"],
  ["C3U U65A", "1 (yes)"],
  ["U12G G17A", "0 (no)"],
  ["G28U G31C", "0 (no)"],
  ["C75A G81A", "0 (no)"],
  ["G2C A56G", "0 (no)"],
  ["C14A G50U", "1 (yes)"],
  ["G17A G67U", "1 (yes)"],
  ["C3G C32U", "0 (no)"],
  ["U37A C64U", "0 (no)"],
  ["G10A A87U", "1 (yes)"],
  ["U12C G35U", "0 (no)"],
  ["G34U A87G", "0 (no)"],
  ["C33G C61U", "0 (no)"],
  ["G53U G59U", "1 (yes)"],
  ["G1A G74C", "0 (no)"],
  ["C15U G29C", "0 (no)"],
  ["C15G U20C", "0 (no)"],
  ["C15U U65G", "1 (yes)"],
  ["U27G C66U", "1 (yes)"],
  ["G54C C86U", "1 (yes)"],
  ["C15U U60A", "1 (yes)"],
  ["C4U G31A", "0 (no)"],
  ["C13G C62G", "0 (no)"],
  ["G67C A78G", "1 (yes)"],
  ["U12C A45U", "0 (no)"],
  ["U37C U60A", "1 (yes)"],
  ["U23C G25U", "0 (no)"],
  ["C22U G68U", "1 (yes)"],
  ["U37C A83C", "0 (no)"],
  ["C41G G76C", "1 (yes)"],
  ["G5A C26G", "1 (yes)"],
  ["A16G A51G", "1 (yes)"],
  ["G5C G40C", "0 (no)"],
  ["G34U A77G", "0 (no)"]
]}
